- Tested on: 786-0 renal
- Protocol Description: NCI tumour cell line growth inhibition, 48 h
Readings of TGI for the listed compounds

Previously resolved entries follow.
| Compound | Endpoint Value |
| --- | --- |
| CNS(=O)(=O)NNS(=O)(=O)c1ccc2ccccc2c1 | > 100 µM |
| O=S(=O)(NC1=NCCN1C(=S)SN1CCn2c1nsc2=S)c1ccc(OC(F)(F)F)cc1 | 21.6 µM |
| COc1ccc(C2c3cc4c(cc3OC(NNS(=O)(=O)c3ccc(C)cc3)C2C)OCO4)cc1 (configuration not stated) | > 100 µM |
| COC1CCC(N2C(=O)CNc3ncc(-c4ccc(C(C)(C)O)nc4)nc32)CC1 (configuration not stated) | > 32.1 µM |
| COc1cc(/C=C2\S/C(=N/Nc3nc(-c4ccc(Br)cc4)cs3)NC2=O)cc(OC)c1OC | 26.5 µM |
| O=C1/C(=C/c2ccc(O)cc2)CC/C1=C\c1ccc(O)cc1 | > 100 µM |
| O=C1C(Cl)=C(Nc2cccc(Cl)c2)C(=O)N1Cc1ccc(Cl)cc1Cl | 4.93 µM |
| O=C(Nc1ccccc1OC(F)(F)F)Nc1n[nH]c2ccccc12 | > 100 µM |

Request: Item NNC(=O)Nc1cccnc1 has what recorded TGI?
Response: > 100 µM

Request: Item Brc1ccc(N=c2nc3ccccn3n3nc(-c4ccccc4)cc23)cc1 has what recorded TGI?
Response: 65.2 µM

Request: Item COc1ccc(C(=O)Cn2c(C(=O)c3ccccc3)nc(-c3ccc(OC)cc3)c2-c2ccc(OC)cc2)cc1 has what recorded TGI?
Response: > 100 µM

Request: Item NC(=O)c1sc(-n2cnc3ccccc32)cc1OCc1ccccc1Br has what recorded TGI?
Response: > 25 µM

---

- Test system: SK-OV-3 ovarian
- Protocol Description: NCI tumour cell line growth inhibition, 48 h
Readout Type: TGI

Previously resolved entries follow.
| Compound | TGI |
| --- | --- |
| COc1cc(/C=N/NC(=O)c2ccc(C(F)(F)F)nc2Nc2ccc(Cl)cc2C)ccc1O | 15.6 µM |
| CCOC(=O)N1CCC2(CC1)C[C@](C)(C(C)=O)C(C)O2 (stereo partly drawn) | > 100 µM |
| O=S1(=O)NC(=NCc2c[nH]c3ccccc23)N(c2ccccc2)c2ccncc21 | > 100 µM |
| O=C(O)c1ccccc1[Se][Se]c1ccccc1C(=O)O | > 100 µM |
| NNC(=O)Nc1cccnc1 | > 100 µM |
| CC1(C)N=C(/C(Cl)=[N+](/[O-])C(=O)c2ccc(F)cc2)C(C)(C)N1O | 47 µM |
| O=C1C(Cl)=C(Nc2cccc(Cl)c2)C(=O)N1Cc1ccc(Cl)cc1Cl | 20.6 µM |
| CCCCCCCCCCCCCCCCCC(CCCCCCCCCCCCCCCCC)OP(=O)(O)O | > 100 µM |
| CCCN=C1CCN(Cc2ccccc2)c2ccccc2N1 | > 100 µM |
| Oc1cccc2c(Cl)ccnc12 | 96.9 µM |

Request: Item O=C(O)CN(CC(=O)O)C1CCCCC1N(CC(=O)O)CC(=O)NCCN=C=S (stereo not drawn) has what recorded TGI?
Response: > 100 µM

Request: Item COc1cc([C@@H]2OCC3C(c4ccc5c(c4)OCO5)OCC32)cc(OC)c1OC (stereo partly drawn) has what recorded TGI?
Response: > 100 µM
